STUDY_SYSTEM: human CD28 (human, UniProt P10747 19-220)
TEST_PROTOCOL: cell-based or functional assay
READOUT_TYPE: Luciferase assay (EC50) (nM)

BINDER: 1h-87 (other) VL: DIQMTQSPSSLSASVGDRVTITCRASQSIGKSLAWYQQKPGKAPKLLIYWVSLLQSGVPSRFSGSGSGTDFTLTISSLQPEDFATYYCQQIVSRPFTFGQGTKVEIKR
Luciferase assay (EC50) (nM): 1700

P: 1h-239-809 (other) VL: DIQMTQSPSSLSASVGDRVTITCRASRPIWPFLEWYQQKPGKAPKLLIYFTSRLQSGVPSRFSGSGSGTDFTLTISSLQPEDFATYYCLQNVTNPATFSQGTKVEIKR
Q: 1h-79-2 (other) VL: DTQMTQSPSSLSASVGDRVTITCRASRPIGHSLGWYQQKPGKAPKLLIYWASMLQSGVPSRFSGSGSGTDFTLTISSLQPEDFATYYCQQMLRTPFTFGQGTKVEIKR
R: 1h-99-201 (other) VH: EVQLLESGGGLVQPGGSLRLSCAASGFTFHRWNMSWARQAPGKGLEWVSWIEDTGTQTFYADSVKGRFTISRDNSKNTLYLQMNSLRAEDTAVYYCAKSPFGPLYGFDYRGQGTLVTVSS
S: 1h-79-1505 (other) VL: DIQMTQSPSSLSASVGDRVTITCRASQPIGHSLGWYQQKPGKAPKLLIYWGSWLQSGVPSRFSGSGSGTDFTLTISSLQPEDFATYYCQQMLRTPFTFGQGTKVEIKR
T: 1h-110 (other) VL: DIQMTQSPSSLSASVGDRVTITCRASRDIGHMLNWYQQKPGKAPKLLIWFGSVLQSGVPSRFSGSGSGTDFTLTISSLQPEDFATYYCVQGRLRPPTFGQGTKVEIKR
List items by Luciferase assay (EC50) in falling order. API: response body holds the labels in the requested order. T, Q, S, R, P
(T: 4100 nM, Q: 166 nM, S: 103 nM, R: 14 nM, P: 6 nM)

A: 1h-79-802 (other) VL: DIQMTQSPSSLSASVGDRVTITCRASTPIGHSLGWYQQKPGKAPKLLIYWASTLQSGVPSRFSGSGSGTDFTLTISSLQPEDFATYYCQQMLRTPFMFGQGTKVEIKR
B: 1h-93-204 (other) VH: EVQLLESGGGLVQPGGSLRLSCAASGFTFYTAEMAWVRQAPGKGLEWVSSIMSNGIRTYYADSVKGRFTISRDNSKNTLYLQMNSLRAEDTAVYYCARRESSSSRTVFDYWGQGTLVTVSS
C: 1h-203 (other) VL: DIQMTQSPSSLSASVGDRVTITCRASQPIGSVLAWYQQKPGKAPKLLIYFSSILQSGVPSRFSGSGSGTDFTLTISSLQPEDFATYYCQQALRSPFTFGQGTKVEIKR
D: 1h-119 (other) VH: EVQLLESGGGLVQPGGSLRLSCAASGFTFTDRCMMWVRQAPGKGLEWVSSIQVEGNHTYYADSVKGRFTISRDNSKNTLYLQMNSLRAEDTAVYYCAKCMTVGPGNSFDYWGQGTLVTVSS
List items by Luciferase assay (EC50) in falling order. API: response body holds the labels in the requested order. D, C, A, B
(D: 2800 nM, C: 880 nM, A: 421 nM, B: 176 nM)

P: 1h-79-31 (other) VL: DIQMTQSPSSLSASVGDRVTITCRASQPIGHSFGWYQQKPGKAPKLLIYWASMLQSGVPSRFSGSGSGTDFTLTISSLQPEDFATYYCQQMLRTPFMFGQGTKVEIKR
Q: 1h-99-227 (other) VH: EVQLLESGGGLVQPGGSLRLSCAASGFTFNHANMSWVRQAPGKGLEWVSWIEDTGTQTFYADSVKGRFTISRDNYKNTLYLQMNSLRAEDTAVYYCAKSPFGPLYGFDYRGQGTLVTVSS
Between P and Q , whose measured Luciferase assay (EC50) reads higher? Mark your answer with the label of the selected entry. P
(P: 141 nM, Q: 18 nM)

1: 1h-99-262 (other) VH: EVQLLESGGGLVQPGGSLRLSCAASGFTFYKANMSWVRQAPGKGLEWVSWIEAPGVQTFYADSVRGRFTISRDNSKNTLYLQMNSLRAEDTAVYYCARSPFGPLYGFDYRGQGTLVTVSS
2: 1h-112 (other) VL: DIQMTQSPSSLSASVGDRVTITCRASQHINASLGWYQQKPGKAPRLLIYWASQLQSGVPSRFSGSGSGTDFTLTISSLQPEDFATYYCQQMVRTPFTFGQGTKVEIKR
3: 1h-34 (other) VL: DIQMTQSPSSLSASVGDRVTITCRASQYIGTSLAWYQQKPGKAPKLLIYHSSGLQSGVPLRFSGSGSGTDFTLTISSLQPEDFATYYCQQTALRPFTFGQGTKVEIKR
4: 1h-74 (other) VL: DIQMTQSPSSLSASVGDRVTITCRASQYIGGALSWYQQKPGKAPKLLIYRASRLQSGVPSRFSGSGSGTDFTLTISSLQPEDFATYYCQQVALVPYTFGQGTKVEIKR
// ascending sort on recorded Luciferase assay (EC50) API: response body holds the labels in the requested order. 1, 2, 4, 3
